These entries and their values trace back to ChEMBL document CHEMBL4346723.

- TEST_SYSTEM: High affinity nerve growth factor receptor (Homo sapiens)
- Sequence (P04629 whole entry): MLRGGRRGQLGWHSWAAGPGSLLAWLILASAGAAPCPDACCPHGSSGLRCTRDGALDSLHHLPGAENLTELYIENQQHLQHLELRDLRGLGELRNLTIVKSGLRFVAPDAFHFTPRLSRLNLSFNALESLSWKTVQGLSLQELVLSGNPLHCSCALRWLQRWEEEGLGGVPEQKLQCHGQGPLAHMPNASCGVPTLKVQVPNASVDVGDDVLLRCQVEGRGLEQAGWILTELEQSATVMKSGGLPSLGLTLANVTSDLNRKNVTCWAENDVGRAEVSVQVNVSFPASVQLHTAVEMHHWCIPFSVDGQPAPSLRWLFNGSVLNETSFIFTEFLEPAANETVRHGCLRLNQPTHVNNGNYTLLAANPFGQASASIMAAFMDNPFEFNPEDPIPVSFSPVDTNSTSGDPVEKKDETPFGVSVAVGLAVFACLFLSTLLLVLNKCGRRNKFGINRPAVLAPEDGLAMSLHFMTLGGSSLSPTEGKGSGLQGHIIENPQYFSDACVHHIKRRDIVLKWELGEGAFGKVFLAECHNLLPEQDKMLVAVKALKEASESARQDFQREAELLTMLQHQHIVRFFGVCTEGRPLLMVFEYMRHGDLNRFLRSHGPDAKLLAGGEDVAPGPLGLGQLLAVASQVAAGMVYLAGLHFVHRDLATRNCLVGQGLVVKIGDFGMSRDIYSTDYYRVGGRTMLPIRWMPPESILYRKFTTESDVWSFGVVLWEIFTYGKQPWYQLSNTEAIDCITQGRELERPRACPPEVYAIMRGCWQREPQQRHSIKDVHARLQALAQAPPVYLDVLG
- ASSAY_NAME: Inhibition of recombinant full length human TRKA expressed in U2OS cells using Poly(Glu:Tyr) as substrate after 30 mins by scintillation counting assay
READOUT: IC50

- O=C(Nc1c(-c2ccccc2)nc2sccn12)NC1c2ccccc2-c2ccccc21: 30 to 35 nM
- O=C(Nc1cccnc1-c1ccccc1)NC1c2ccccc2-c2ccccc21: 27 to 30 nM
- O=C(Cn1c2c(c3cc(F)ccc31)CCn1nccc1-2)NCc1ccc(-c2c(F)cccc2F)cn1: 0.9 to 1 nM

Lab note: `O=C(Nc1c(-c2ccccc2)nc2ccccn12)NC1c2ccccc2-c2ccccc21` gave IC50 of 28 to 30 nM

Lab note: CS(=N)(=O)c1ccc(-c2ccc(CNC(=O)Cn3c4c(c5cc(F)ccc53)CCn3nccc3-4)nc2)cc1 (stereo unspecified) gave IC50 of 0.7 to 1 nM

Lab note: CS(=N)(=O)c1ccc(-c2ccc(CNC(=O)Cn3c4c(c5ccccc53)CCn3nccc3-4)nc2)cc1 (stereo unspecified) gave IC50 of 0.5 to 1 nM
